- measuredTarget: native HDL (DGUC-HDL, apoA-I-containing lipoprotein particle) (Homo sapiens) (UniProt P02647)
- Sequence (P02647 whole entry): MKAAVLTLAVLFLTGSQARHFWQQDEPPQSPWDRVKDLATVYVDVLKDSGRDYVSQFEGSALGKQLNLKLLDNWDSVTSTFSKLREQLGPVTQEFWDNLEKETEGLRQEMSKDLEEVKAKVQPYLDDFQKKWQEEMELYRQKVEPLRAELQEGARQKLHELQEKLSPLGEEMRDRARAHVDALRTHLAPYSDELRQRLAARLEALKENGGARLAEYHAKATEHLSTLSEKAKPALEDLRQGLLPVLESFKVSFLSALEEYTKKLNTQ
- runDescription: MST
- conditionSummary: MST: 100 nM AF647 oligo (90 C 2 min, cooled) mixed 1:1 with ligand in PBS, RT, 5 min; EMSA: 1 uM AF546 oligo, UV 254 nm 15 min on ice, 4-16% NativePAGE, 0.5x …
endpointName: pKd
Lab note — pKd values are minus log10 of concentrations in M.

Use the examples below as a reference point.
# polymerSequence, pKd
records = [
    ("GCAUUGGUGGUUCAG [tDR-GlyGCC-5'-tRH-5'tRF-15]", 6.94),
    ("UGGUAGAAUUCUCGC [tDR-GlyGCC-5'-tRH-3'-tRF-15]", 6.91),
    ("CUGCCACGCGGGAGGCCCGGGUUCGAUUCC [tDR-GlyGCC-3'-tRH-30]", 7.07),
]

pKd for GCAUUGGUGGUUCAGUGGUAGAAUUCUCGC [tDR-GlyGCC-30 (5'-tRH-30)] is 7.80

Hey, just so you know, these numbers are from paper PMC9133651.
